System: VDR:RXRa (NR concentration 270 nM, RXRa partner concentration 90 nM)
Assay: PBM binding z-score (relative to random genomic background probes); higher = stronger binding; sequences stand for … in GC…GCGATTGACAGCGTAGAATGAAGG
Endpoint Label: PBM binding z-score
Answer as a number with no unit attached.

As a guide, the following entries are already answered.
{"Query Sequence": "CCGAGTAGGTTACGAAGGGGCATTCAGTGCGAAT", "Measured": 3.08}
{"Query Sequence": "CCGAGTAGGTTACGAGGGGGCATTCGGTGCGAAT", "Measured": 5.48}

Now turn to the next sequence.
## Task # lookup: PBM binding z-score of CCTACGGGGCCAAGGTCATTGATCAGTCAAAGCA
## Result 3.52

---

Tested on: FXR:RXRa (NR concentration 270 nM, RXRa partner concentration 90 nM)
Experiment: PBM binding z-score (relative to random genomic background probes); higher = stronger binding; sequences stand for … in GC…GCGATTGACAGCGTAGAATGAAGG
# cutoff 5 applies to PBM binding z-score; >= gives yes (1), < gives no (0)

{"Query Sequence": "TCGAGTAGGTTACGGGGGCATCCAGGGATGAAGA", "Assigned Class": "no (0)"}
{"Query Sequence": "CCGTACGGGTCAAGGTTATAGCACGGGTGGTACG", "Assigned Class": "yes (1)"}
{"Query Sequence": "CTATGTAGGTTAAGGGGGTCATTCAGTTTGAAAG", "Assigned Class": "yes (1)"}
{"Query Sequence": "AGTCAAAGGTCACTAGGTAACGTAAGATTCAGCT", "Assigned Class": "yes (1)"}

## Task # check: PBM binding z-score of TCTGCTTGGTCAACGATGGTCAGCTAATCTGCTA is greater than or equal to 5
## Result no (0)

## Task # check: PBM binding z-score of TCGAGTAGGTTACGGGGGAATTCAGGGATGAAGA is greater than or equal to 5
## Result no (0)

## Task # check: PBM binding z-score of TAGCCTAGGTCAGATCGGGCGAGTATACGCTATA is greater than or equal to 5
## Result no (0)

---

System: PPARg:RXRa IVT, anti-PPARg (NR concentration 270 nM, RXRa partner concentration 90 nM)
Assay: PBM binding z-score (relative to random genomic background probes); higher = stronger binding; sequences stand for … in GC…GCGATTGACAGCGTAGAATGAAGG
Known PBM binding z-score of a selection of sequences
Answer as a number with no unit attached.

{"Query Sequence": "ACATGTAGGTTAGGGTCATTCAGAAAGTAGGGAA", "PBM binding z-score": 5.83}

## Task Request: PBM binding z-score, test system PPARg:RXRa IVT, anti-PPARg (NR concentration 270 nM, RXRa partner concentration 90 nM), entry TAGCCTAGGTCATTCAGGGGGCAGTATAGAAAGC
## Result 4.86

## Task Request: PBM binding z-score, test system PPARg:RXRa IVT, anti-PPARg (NR concentration 270 nM, RXRa partner concentration 90 nM), entry CTATGTAGGTTAAGGGGGTGATTCAGTTTGAAAG
## Result 7.27

## Task Request: PBM binding z-score, test system PPARg:RXRa IVT, anti-PPARg (NR concentration 270 nM, RXRa partner concentration 90 nM), entry TAGCCTAGGTGATTGGGCCAGTATAGTACGCATC
## Result 1.35

## Task Request: PBM binding z-score, test system PPARg:RXRa IVT, anti-PPARg (NR concentration 270 nM, RXRa partner concentration 90 nM), entry AGTCAAAGTTCAGGACGAGGTAATGTAAAGCACG
## Result 1.45

## Task Request: PBM binding z-score, test system PPARg:RXRa IVT, anti-PPARg (NR concentration 270 nM, RXRa partner concentration 90 nM), entry TCGAGCAGGTTACGGGGGCATTCAGGGATGAAGA
## Result 4.12

## Task Request: PBM binding z-score, test system PPARg:RXRa IVT, anti-PPARg (NR concentration 270 nM, RXRa partner concentration 90 nM), entry CAGAGTAGGTTACGAGGGGGCATTCAGTGCGAAT
## Result 5.83

## Task Request: PBM binding z-score, test system PPARg:RXRa IVT, anti-PPARg (NR concentration 270 nM, RXRa partner concentration 90 nM), entry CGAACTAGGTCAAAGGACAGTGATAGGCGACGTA
## Result 8.07

## Task Request: PBM binding z-score, test system PPARg:RXRa IVT, anti-PPARg (NR concentration 270 nM, RXRa partner concentration 90 nM), entry CGAACTCGGTCACCAGGACAGTGAAGAGGTTGGA
## Result 3.87

## Task Request: PBM binding z-score, test system PPARg:RXRa IVT, anti-PPARg (NR concentration 270 nM, RXRa partner concentration 90 nM), entry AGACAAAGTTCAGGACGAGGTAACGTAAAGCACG
## Result 0.619

---

System: PPARg:RXRa IVT, anti-PPARg (NR concentration 270 nM, RXRa partner concentration 90 nM)
Test: PBM binding z-score (relative to random genomic background probes); higher = stronger binding; sequences stand for … in GC…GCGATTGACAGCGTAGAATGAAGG
Endpoint Label: PBM binding z-score

As a guide, the following entries are already answered.
{"Query Sequence": "TTACCAAGGTGAAAGGTCATTGATGCACGCCTTG", "Study Target": "PPARg:RXRa IVT, anti-PPARg (NR concentration 270 nM, RXRa partner concentration 90 nM)", "PBM binding z-score": 6.12}
{"Query Sequence": "TTAACAAGGTGAAAGGTCGTTGATGCACGCCTTG", "Study Target": "PPARg:RXRa IVT, anti-PPARg (NR concentration 270 nM, RXRa partner concentration 90 nM)", "PBM binding z-score": 5.57}
{"Query Sequence": "CGAACTAAGTCATTGACAGGACAGTGAATAGTAA", "Study Target": "PPARg:RXRa IVT, anti-PPARg (NR concentration 270 nM, RXRa partner concentration 90 nM)", "PBM binding z-score": 0.473}
{"Query Sequence": "CGAACTAGGTCAAAGGACAGAGAAAGGCGACGTA", "Study Target": "PPARg:RXRa IVT, anti-PPARg (NR concentration 270 nM, RXRa partner concentration 90 nM)", "PBM binding z-score": 8.31}

## Task # lookup: PBM binding z-score of ATCGAAAGGTCGACGAGGTGAGAATACACCGTTT
## Result 2.39

## Task # lookup: PBM binding z-score of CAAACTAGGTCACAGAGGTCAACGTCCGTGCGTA
## Result 9.29

## Task # lookup: PBM binding z-score of TCGAGTAGGTTACGGGGGCATGCAGGGATGAAGA
## Result 5.87

## Task # lookup: PBM binding z-score of AGAACGAGGGCAATGAGTTCATAGCACGGGTGGC
## Result 3.12

## Task # lookup: PBM binding z-score of ATATGTCGGTTAGGGTCATTCAGAAAGTAGGGAA
## Result 3.18

---

Test system: PPARg DBDmut:RXRa IVT, anti-PPARg (DBD mutation: PPARg1 K132A/R137A, NR concentration 270 nM, RXRa partner concentration 90 nM)
Assay: PBM binding z-score (relative to random genomic background probes); higher = stronger binding; sequences stand for … in GC…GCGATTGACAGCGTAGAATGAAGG
# cutoff 0.4 applies to PBM binding z-score; >= gives rule met, < gives rule not met

Illustrative cases are given below, each with its answer.
{"Query Sequence": "CCTACTGGGCCATTCAGAGGTCATCGATCATATG", "Assigned Class": "rule met"}
{"Query Sequence": "ATCGAAAGGTCGAAGGTGACTATACCCACCCGAA", "Assigned Class": "rule met"}
{"Query Sequence": "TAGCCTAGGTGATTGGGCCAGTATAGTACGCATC", "Assigned Class": "rule not met"}
{"Query Sequence": "CGTCCAAGGTCATAGGAGGTCACTGAAGACAGAT", "Assigned Class": "rule met"}
{"Query Sequence": "CGGACTGGGGCAAAGGTTACCATACTCAGTACGA", "Assigned Class": "rule not met"}
{"Query Sequence": "ATCGAATGGTCGTGAGGTGAGTATACAGAAAGGC", "Assigned Class": "rule not met"}
{"Query Sequence": "CCTACTGGGCCAAAGGTCCTTGATTCCAATGCTC", "Assigned Class": "rule not met"}
{"Query Sequence": "TCTTGTAGATCAAAGGTCAAGAAAGCCGAAGCCT", "Assigned Class": "rule not met"}
{"Query Sequence": "CAAACTAGGTCACGAAAGGTCAAAGCCGAATGAC", "Assigned Class": "rule met"}
{"Query Sequence": "CAAACTAGGTCACAGAGGTTAAAGTCCGTGCGTA", "Assigned Class": "rule met"}

## Task # check: PBM binding z-score of CCTAGTTGGTCAAGCTCACACACGCTATAGGTAC is greater than or equal to 0.4
## Result rule not met

## Task # check: PBM binding z-score of ATCTCTAGGTTAAAGTTCAGTGAATCCCGAGGAT is greater than or equal to 0.4
## Result rule met

## Task # check: PBM binding z-score of TAGCCTAGCTCATTCAGGGGCCAGTATAGAAAGC is greater than or equal to 0.4
## Result rule not met

## Task # check: PBM binding z-score of CGTCCAAGGTCAACAGGTCAGTGAAAGCGACGTG is greater than or equal to 0.4
## Result rule not met

## Task # check: PBM binding z-score of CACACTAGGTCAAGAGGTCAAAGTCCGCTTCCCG is greater than or equal to 0.4
## Result rule met

## Task # check: PBM binding z-score of TATCCTAGGTCAGATCGGGCCAGTATACGCTATA is greater than or equal to 0.4
## Result rule met

## Task # check: PBM binding z-score of AAAATGAGGTTAAGATCAGGGAAACAGAATACAT is greater than or equal to 0.4
## Result rule met

## Task # check: PBM binding z-score of ACTCGGAGGACAGAGGTCAGAGCTACGCCAGTGA is greater than or equal to 0.4
## Result rule not met

## Task # check: PBM binding z-score of CGTCAAAGTTCTAGGTAACGTAACAGAAAGCAGC is greater than or equal to 0.4
## Result rule met

## Task # check: PBM binding z-score of CGTCGAAGGTCAATGCTAGGTCAGTGAAAGCATT is greater than or equal to 0.4
## Result rule not met

These measurements were taken from the supplement of paper PMC6555819.
